Organism: Homo sapiens
method.summary: Platelets binding activity relative to heparin was evaluated by competitive binding assay using [3H]-labeled heparin at concentration ~1.2 uM
Format: functional
Give Binding for every item shown.
Returns: string containing the number followed by the unit.

Which Binding is reported for this molecule? CO[C@H]1O[C@H](CO)[C@@H](O[C@H]2O[C@H](C(=O)[O-])[C@@H](OC3O[C@H](COS(=O)(=O)[O-])[C@@H](OC)[C@H](O)[C@H]3NS(=O)(=O)[O-])[C@H](O)[C@H]2OS(=O)(=O)[O-])[C@H](O)[C@H]1NS(=O)(=O)[O-].[Na+].[Na+].[Na+].[Na+].[Na+] (some centres undefined) 100%

For CO[C@@H]1O[C@H](C(=O)[O-])[C@@H](O[C@H]2O[C@H](COS(=O)(=O)[O-])[C@@H](OC)[C@H](OS(=O)(=O)[O-])[C@H]2NS(=O)(=O)[O-])[C@H](O)[C@H]1OS(=O)(=O)[O-].[Na+].[Na+].[Na+].[Na+].[Na+] , what is its reported Binding? 100%

Recorded Binding of CO[C@H]1O[C@H](COS(=O)(=O)[O-])[C@@H](O[C@H]2O[C@H](C(=O)[O-])[C@@H](OC)[C@H](O)[C@H]2OS(=O)(=O)[O-])[C@H](O)[C@H]1NS(=O)(=O)[O-].[Na+].[Na+].[Na+].[Na+] , please. 96%

What does the record list as Binding for CO[C@H]1O[C@H](COS(=O)(=O)[O-])[C@@H](O[C@H]2O[C@H](C(=O)[O-])[C@@H](O[C@H]3O[C@H](COS(=O)(=O)[O-])[C@@H](OC)[C@H](O)[C@H]3NS(=O)(=O)[O-])[C@H](O)[C@H]2OS(=O)(=O)[O-])[C@H](O)[C@H]1NS(=O)(=O)[O-].[Na+].[Na+].[Na+].[Na+].[Na+].[Na+] ? 105%

Where these numbers come from: ChEMBL document CHEMBL1132132
